- protocol details: JC-1 mitochondrial signal, unstimulated MM1S myeloma – cell-based, JC-1 fluorescence, 24 h, 100 nL compound, profiling panel (AID 1170); further: test concentration not given here
- experimental setup: MM1S mitochondrial potential, higher = more signal
Listed next: entries and their corresponding z-score.

compound: C/C=C/[C@@H](CCn1cc([C@H](O)c2ccccc2)nn1)[Si](C)(C)c1ccc(OC)cc1
z-score: -0.462
--
compound: Cc1ccc(C(C)CC(O)C2C=CC3C(=O)N(Cc4ccccc4)C(=O)C3N2n2cnnc2)o1 (configuration not stated)
z-score: 1.24
--
compound: COc1ccc(C#Cc2ccc3c(c2)[C@]2(C(=O)N3)[C@H](c3ccc(OCCO)cc3)N3[C@H](c4ccccc4)[C@H](c4ccccc4)OC(=O)[C@H]3[C@@H]2C(=O)N2CCN(c3ncccn3)CC2)cc1
z-score: -0.816
--
compound: CN1C(=O)C2C=CC(C(O)c3cccc4ccccc34)N(NC(=O)OC(C)(C)C)C2C1=O (configuration not stated)
z-score: 0.437
--
compound: COC(=O)[C@]1(Cc2ccccc2CN=[N+]=[N-])N=C(c2ccc(OCCCO)cc2)O[C@@H]1c1ccccc1CN=[N+]=[N-]
z-score: -2.47
--
compound: Cc1ccccc1C(O)C1C=CC2C(=O)N(Cc3ccccc3)C(=O)C2N1n1cnnc1 (configuration not stated)
z-score: -0.806
--
compound: O=C1OCCC=C[C@H]2OC34C=CCN(Cn5nnc6ccccc65)C(=O)[C@H]3N(CCCCCO)C(=O)[C@@H]4C12 (some centres not stated)
z-score: -1.19

###

- Tested on: Wnt5a (protein binding on small-molecule microarray)
- protocol details: small molecules binding Wnt5a protein – biophysical, small-molecule microarray, 635/667 nm fluorescence, primary screen (AID 1142);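 further: fluorescence read at 667 nm with signal to noise per printed feature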
- experimental setup: 635 nm fluorescence, higher = more signal
Entries annotated with measured composite z-score
property label: composite z-score

compound: CN(C)CCCCNC(=O)[C@H]1C[C@H]2C(=O)N[C@@H](CCCC[N+](C)(C)C)C(=O)N2[C@H]1c1cccc(OCCO)c1
property label: composite z-score
endpoint value: 0.446
--
compound: CCCCC=C[C@@H](NC(=O)CCc1ccccc1)c1ccccc1
property label: composite z-score
endpoint value: 0.317
--
compound: COCCOC(=O)N1C(=O)[C@@]2(c3cc(C#CC4(O)CCCCCC4)ccc31)[C@H](C(=O)N1CCN(c3ncccn3)CC1)[C@H]1C(=O)O[C@H](c3ccccc3)[C@H](c3ccccc3)N1[C@@H]2c1ccc(O)cc1
property label: composite z-score
endpoint value: 0.521
--
compound: O=C(O)[C@]1(CCS(=O)(=O)c2ccccc2)N=C(c2ccc(OCCCO)cc2)O[C@@H]1c1ccccc1
property label: composite z-score
endpoint value: 0.235
--
compound: COC(=O)[C@@]1(Cc2ccc(OC)cc2)[C@H]2c3cc(C(=O)N(C)C)n(Cc4cc(C)n(C)n4)c3C[C@H]2CN1C(=O)c1ccccc1
property label: composite z-score
endpoint value: 0.982
--
compound: COc1ccccc1CN1C(=O)c2ccccc2[C@@]2(Cc3ccccc3N(C3CC3)C2=O)[C@@H]1c1ccc(CO)cc1
property label: composite z-score
endpoint value: -0.507
--
compound: C#CCNS(=O)(=O)N(C)C
property label: composite z-score
endpoint value: -0.006
--
compound: COCCOC(=O)N1C(=O)[C@@]2(c3cc(C#CCNC(N)=O)ccc31)[C@H](C(N)=O)[C@H]1C(=O)O[C@H](c3ccccc3)[C@H](c3ccccc3)N1[C@@H]2c1ccc(OCCO)cc1
property label: composite z-score
endpoint value: 0.601
--
compound: CC(C)CNC(=O)[C@@]1(C)c2ccccc2C(=O)N(Cc2ccccc2)[C@H]1c1ccc(CO)cc1
property label: composite z-score
endpoint value: -0.368
--
compound: [N-]=[N+]=Nc1ccccc1[C@H]1OC(c2ccc(OCCCO)cc2)=N[C@@]1(Cc1ccccc1)C(=O)NCc1ccccc1
property label: composite z-score
endpoint value: 0.821
--
compound: CCOC(=O)C1=CC[C@@H](c2ccc(N(CC)CC)cc2)N(S(=O)(=O)c2ccc(C)cc2)[C@H]1c1ccc([N+](=O)[O-])cc1
property label: composite z-score
endpoint value: -0.383
--
compound: C[N+](C)(C)CCCC[C@@H]1NC(=O)[C@@H]2C[C@H](C(=O)NCCCCCNC(=O)CS)[C@H](c3cccc(OCCO)c3)N2C1=O
property label: composite z-score
endpoint value: 0.623
--
compound: O=C1NC(=O)C2C1C=CC(C(O)CCc1ccccc1)N2Nc1ccccn1 (stereo not given)
property label: composite z-score
endpoint value: 0.149
--
compound: COCCOC(=O)N1C(=O)[C@@]2(c3ccccc31)[C@H](c1ccccc1OCCO)N1[C@H](c3ccccc3)[C@H](c3ccccc3)OC(=O)[C@H]1[C@@H]2C(=O)N1CCc2cc(OC)c(OC)cc2C1
property label: composite z-score
endpoint value: 0.212
--
compound: CN(C)C(=O)[C@@]1(CCC(=O)OC(C)(C)C)COC(c2ccc(OCCCO)cc2)=N1
property label: composite z-score
endpoint value: 0.0507

###

- protocol details: budding yeast growth changes without added modifier – OD600, strain BY4716, 24 h, basal condition, primary screen (AID 1173)
- experimental setup: S. cerevisiae BY4716 growth, OD600, 24 h; higher = more signal, called active from +8 up or from −8 down
Activity calls are given as the source filed them.
property label: z-score

molecule: CC(C)CCC[C@@H](C)[C@H]1CC[C@@]2(C)C3=C(CC[C@]12C)[C@@]1(C)CC[C@H](OC(=O)C(C)(C)C)C(C)(C)C1CC3 (some centres undefined)
property label: z-score
endpoint value: -0.743 (inactive)
//
molecule: Cc1ccccc1C(O)C1C=CC2C(=O)N(Cc3ccccc3)C(=O)C2N1n1cnnc1 (centres undefined)
property label: z-score
endpoint value: 0.232 (inactive)
//
molecule: C=C(C(=O)CC[C@H](OC(=O)c1cccnc1)c1ccc(OCCO)cc1)C(C)C
property label: z-score
endpoint value: -0.303 (inactive)
//
molecule: COC(=O)[C@@]1(Cc2ccccc2)[C@H]2c3cc(C(=O)N4CCCC4)n(CCO)c3C[C@H]2CN1C(=O)c1ccccc1
property label: z-score
endpoint value: 0.192 (inactive)

###

- protocol details: JC-1 mitochondrial signal, unstimulated adipocytes – cell-based, JC-1 fluorescence, 3T3-L1 adipocytes, 24 h, 100 nL compound, profiling panel (AID 1168); further: test concentration not given here
- experimental setup: JC-1 mitochondrial fluorescence, higher = more signal, called active from +8 up or from −8 down

smiles data: COC(=O)[C@@]1(Cc2ccc(F)cc2)[C@H]2c3cc(C(=O)N(C)C)n(CCSCCO)c3C[C@H]2CN1C(=O)c1ccccc1
z-score: -0.682
//
smiles data: CCCNC(=O)[C@@]1(Sc2ccc(C)cc2)CC(=O)N(Cc2ccccc2)[C@@H]1c1ccc(CO)cc1I
z-score: -0.686
//
smiles data: CC(C)C[C@@H]1NC(=O)[C@@H]2C[C@H](C(=O)NCc3ccc(F)cc3)[C@H](c3ccc(O)cc3)N2C1=O
z-score: 0.0421
//
smiles data: C=C[C@H](C)[C@H](OC(=O)Nc1ccc(SC)cc1)c1ccc(O)c2ccccc12
z-score: -0.818

###

- protocol details: budding yeast growth modifiers under rapamycin – strain BY4716, OD600, 96 h, primary screen (AID 1091); further: test concentration not given here
- experimental setup: S. cerevisiae BY4716 + rapamycin, higher = more signal, called active from +8 up or from −8 down
Response key: 1 means z-score >= -0.3; -1 means z-score < -0.3.

compound: C[N+](C)(C)CCCCCCNC(=O)[C@@H]1C[C@@H]2C(=O)NCC(=O)N2[C@@H]1c1cccc(OCCO)c1
category label: -1

compound: COCCCNC(=O)[C@@]1(Cc2ccccc2)COC(c2ccc(OCCCO)cc2)=N1
category label: -1

compound: COC(=O)[C@@]1(Cc2ccc(F)cc2)[C@@H]2[C@@H](CC(=O)[C@H]2CC(=O)C(=O)N2CCCC2)CN1C(=O)c1ccccc1
category label: 1

compound: CCCNC(=O)[C@@H]1c2ccccc2C(=O)N(CC23CC4CC(CC(C4)C2)C3)[C@H]1c1ccc(CO)cc1
category label: 1

compound: Cc1ccc(S[C@]2(C(=O)O)CC(=O)N(C3CCCCC3)[C@@H]2c2ccc(CO)cc2)cc1
category label: 1

compound: CCCCC(O)C1C=CC2C(=O)N(Cc3ccccc3)C(=O)C2N1n1cnnc1 (stereo not drawn)
category label: -1

compound: NCCCCCCNC(=O)[C@H]1C[C@H]2C(=O)N3CCC[C@H]3C(=O)N2[C@H]1c1ccc(O)cc1
category label: 1

compound: COC(=O)[C@]1(Cc2ccccc2N=[N+]=[N-])N=C(c2ccc(OCCCO)cc2)O[C@@H]1c1ccccc1
category label: 1

###

Items are presented alongside their recorded z-score.
- protocol details: Pseudomonas biofilm growth suppression – PAO1 strain, BacTiter-Glo luminescence, LB-PBS, primary screen (AID 1144)
- experimental setup: P. aeruginosa PAO1 biofilm, 12 h, higher = more signal

molecule: C=CCOC(=O)[C@H]1[C@@H]2C(=O)O[C@@H](c3ccccc3)[C@@H](c3ccccc3)N2[C@@H](c2ccc(OCCOC(=O)[C@H]3C[C@H]4C(=O)N[C@@H](CCCCN(C)C)C(=O)N4[C@H]3c3ccc(O)cc3)cc2)[C@]12C(=O)Nc1ccccc12
z-score: -0.063
//
molecule: COC(=O)[C@@]1(Cc2ccccc2)[C@H]2c3cc(C(=O)N(C)C)n(Cc4ccccn4)c3C[C@H]2CN1C(=O)c1ccccc1
z-score: -0.0189
//
molecule: COCCOC(=O)N1C(=O)[C@@]2(c3cc(C#CCC(C(=O)OC)C(=O)OC)ccc31)[C@H](C(=O)N1CCCCCCC1)[C@H]1C(=O)O[C@H](c3ccccc3)[C@H](c3ccccc3)N1[C@@H]2c1ccc(O)cc1
z-score: -0.754
//
molecule: CCCCCCC#C[Si](O[C@H](c1ccccc1)c1cn(Cc2cccc(Cl)c2)nn1)(C(C)C)C(C)C
z-score: -0.628
//
molecule: O=C(NCc1ccccc1)[C@]1(Cc2ccccc2)N=C(c2ccc(OCCCO)cc2)O[C@@H]1c1ccccc1
z-score: -0.621
//
molecule: [N-]=[N+]=NCc1ccccc1C[C@]1(C(=O)NCCN2CCOCC2)N=C(c2ccc(OCCCO)cc2)O[C@H]1c1ccccc1
z-score: -1.63
//
molecule: COc1ccc([Si](C)(C)[C@@H]2[C@@H](CCO)O[C@]3(C(=O)N(Cc4ccccc4)c4ccc(N5C(=O)COc6ccccc65)cc43)[C@H]2C)cc1
z-score: -0.617
//
molecule: CC1C=C(CCCO)C=C(C(=O)OCCS(C)(=O)=O)C(C(=O)OCCS(C)(=O)=O)=CN1Cc1cccc(OC(F)(F)F)c1 (stereo not given)
z-score: -0.846
//
molecule: CCCCC(=C=CC[C@H](O)c1cccc(OCCO)c1)C[C@H](O)COCc1ccccc1
z-score: -0.295
//
molecule: [N-]=[N+]=NCc1ccccc1[C@H]1OC(c2ccc(OCCCO)cc2)=N[C@@]1(Cc1ccccc1)C(N)=O
z-score: -0.293
//
molecule: O=C(O)[C@]1(CCS(=O)(=O)c2ccccc2)N=C(c2ccc(OCCCO)cc2)O[C@@H]1c1ccccc1
z-score: 0.869
//
molecule: N#Cc1ccc(NN2C(C(O)c3ccccc3)C=CC3C(=O)N(c4ccccc4)C(=O)C32)cc1 (stereo not given)
z-score: -0.121
//
molecule: C=CC[C@]1(C(=O)N(C)C)N=C(c2ccc(OCCCO)cc2)O[C@H]1c1ccccc1
z-score: -0.87
//
molecule: CC(C)(C)OC(=O)CC[C@@]1(C(=O)N2CCCCC2)N=C(c2ccc(OCCCO)cc2)O[C@@H]1c1ccccc1N=[N+]=[N-]
z-score: -0.197
//
molecule: CCCN1C(=O)[C@@]2(Cc3ccccc3)N=C(c3ccc(OCCCO)cc3)O[C@H]2c2ccccc21
z-score: -0.657
